Each recorded value in this set is attributed to ChEMBL document CHEMBL1130736.

Tested on: MT4
Experiment: Concentration required to cause 50% death of uninfected MT-4 cells
Type: functional
Condition Notes: Homo sapiens
Measure: CC50 (µM)
Entry rule: numbers only, all in µM.

Fill in the blank: the reported CC50 of O=C1CCN(C(=O)[C@H](Cc2ccccc2)NC(=O)OCc2ccccc2)C1 is ____.
50

Now consider CN(C(=O)N[C@@H](Cc1ccccc1)C(=O)N1CCC(=O)C1)c1ccccc1 and answer again.
50

Now consider CC(C)(C)OC(=O)N[C@@H](Cc1ccccc1)C(=O)N1CCC(O)C1 (stereo not given in full) and answer again.
100

Now consider CC(C)(C)OC(=O)N[C@@H](Cc1ccccc1)C(=O)N1CCC(=O)C1 and answer again.
100

Now consider CCCCCCCCOC(=O)N[C@@H](Cc1ccccc1)C(=O)N1CCC(=O)C1 and answer again.
50

Now consider O=C1CCN(C(=O)[C@H](Cc2ccccc2)NC(=O)c2ccccc2)C1 and answer again.
50
